Quick reference for OD value among some binders
- SYSTEM_TESTED: T1, human Nectin-4 extracellular antigen hNectin-4-His (human, UniProt Q96NY8 32-349)
- T1 construct: C-terminal 8xHis tag included
- T1 sequence: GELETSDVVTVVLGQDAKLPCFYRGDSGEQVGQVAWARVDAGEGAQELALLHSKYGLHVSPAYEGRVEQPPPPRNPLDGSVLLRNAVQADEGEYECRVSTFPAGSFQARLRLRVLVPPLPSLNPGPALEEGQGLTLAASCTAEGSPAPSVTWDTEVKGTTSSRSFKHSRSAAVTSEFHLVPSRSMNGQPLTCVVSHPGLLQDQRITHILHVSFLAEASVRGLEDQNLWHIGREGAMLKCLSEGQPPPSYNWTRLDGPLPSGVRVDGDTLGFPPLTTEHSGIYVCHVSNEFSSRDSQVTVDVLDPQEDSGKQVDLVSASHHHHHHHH
- METHOD_SUMMARY: ELISA, phage scFv supernatant 1:50
METRIC: OD value

BINDER: 1G8-2A7 scFv (scFv, V domains shown, phage clone supernatant) VH: EVQLVESGGGLVQPGGSLRLSCAASGYSFSDYAMSWVRQAPGKGLEWVSRISAYGWGKSYADSVKGRFTISRDNSKNTLYLQMNSLRAEDTAVYYCARQTEDRSYGYDLDYWGQGTLVTVSS VL: DIQMTQSPSSLSASVGDRVTITCRASQGISSYLAWYQQKPGKAPKLLIYAASSLQSGVPSRFSGSGSGTDFTLTISSLQPEDFATYYCQQHYTTPPTFGQGTKVEIKR
OBSERVED_MEASUREMENT: 1.6 OD
--
BINDER: 1G8-2B12 scFv (scFv, V domains shown, phage clone supernatant) VH: EVQLVESGGGLVQPGGSLRLSCAASGDTFGTSSMSWVRQAPGKGLEWVSRIDTWGWYKFYADSVKGRFTISRDNSKNTLYLQMNSLRAEDTAVYYCARQTEDRSYGYDLDYWGQGTLVTVSS VL: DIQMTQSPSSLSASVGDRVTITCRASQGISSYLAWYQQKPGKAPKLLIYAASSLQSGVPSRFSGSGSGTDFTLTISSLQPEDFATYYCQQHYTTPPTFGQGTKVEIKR
OBSERVED_MEASUREMENT: 1.39 OD
--
BINDER: 1G8-2B3 scFv (scFv, V domains shown, phage clone supernatant) VH: EVQLVESGGGLVQPGGSLRLSCAASGYNFTTSAMSWVRQAPGKGLEWVSRIYQDSSTTDYADSVKGRFTISRDNSKNTLYLQMNSLRAEDTAVYYCARQTEDRSYGYDLDYWGQGTLVTVSS VL: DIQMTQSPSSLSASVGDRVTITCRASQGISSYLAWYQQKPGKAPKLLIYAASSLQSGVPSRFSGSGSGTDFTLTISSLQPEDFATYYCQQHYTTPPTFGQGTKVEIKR
OBSERVED_MEASUREMENT: 1.57 OD
--
BINDER: 1G8-1G3 scFv (scFv, V domains shown, phage clone supernatant) VH: EVQLVESGGGLVQPGGSLRLSCAASGFNFGTYAMSWVRQAPGKGLEWVSRISGISAGTNYADSVKGRFTISRDNSKNTLYLQMNSLRAEDTAVYYCARQTEDRSYGYDLDYWGQGTLVTVSS VL: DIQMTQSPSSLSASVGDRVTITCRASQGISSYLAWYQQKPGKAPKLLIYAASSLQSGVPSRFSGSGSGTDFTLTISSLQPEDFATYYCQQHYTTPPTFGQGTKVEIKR
OBSERVED_MEASUREMENT: 1.58 OD
--
BINDER: 1F3-1G5 scFv (scFv, V domains shown, phage clone supernatant) VH: EVQLVESGGGLVQPGGSLRLSCAASGFSFGSYGMSWVRQAPGKGLEWVSGIKPSTSTTYYADSVKGRFTISRDNSKNTLYLQMNSLRAEDTAVYYCARAELLAFDVYTASDYWGQGTLVTVSS VL: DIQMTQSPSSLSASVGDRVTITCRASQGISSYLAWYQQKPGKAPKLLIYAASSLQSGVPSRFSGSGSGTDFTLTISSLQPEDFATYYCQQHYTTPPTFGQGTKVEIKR
OBSERVED_MEASUREMENT: 1.56 OD
